- experimentNotes: AUC (0 to infinity) in cynomolgus monkey at 1 mg/kg, iv
- Type: ADME, organism-based, Macaca fascicularis
- Set-up: dose 1 mg/kg, time infinity, route intravenous
- statedConditions: in vivo

{"columns": ["molecule", "AUC(0-inf) (ng·h/mL)"],
 "data": [
  ["O=C(NC1CC1)C(=O)C(Cc1ccccc1)NC(=O)[C@H]1CCC(=O)N1Cc1ccccc1 (stereo partly specified)", 510]
]}

---

- subjectOfTest: Calpain-1 catalytic subunit (Homo sapiens)
- Sequence (P07384 whole entry): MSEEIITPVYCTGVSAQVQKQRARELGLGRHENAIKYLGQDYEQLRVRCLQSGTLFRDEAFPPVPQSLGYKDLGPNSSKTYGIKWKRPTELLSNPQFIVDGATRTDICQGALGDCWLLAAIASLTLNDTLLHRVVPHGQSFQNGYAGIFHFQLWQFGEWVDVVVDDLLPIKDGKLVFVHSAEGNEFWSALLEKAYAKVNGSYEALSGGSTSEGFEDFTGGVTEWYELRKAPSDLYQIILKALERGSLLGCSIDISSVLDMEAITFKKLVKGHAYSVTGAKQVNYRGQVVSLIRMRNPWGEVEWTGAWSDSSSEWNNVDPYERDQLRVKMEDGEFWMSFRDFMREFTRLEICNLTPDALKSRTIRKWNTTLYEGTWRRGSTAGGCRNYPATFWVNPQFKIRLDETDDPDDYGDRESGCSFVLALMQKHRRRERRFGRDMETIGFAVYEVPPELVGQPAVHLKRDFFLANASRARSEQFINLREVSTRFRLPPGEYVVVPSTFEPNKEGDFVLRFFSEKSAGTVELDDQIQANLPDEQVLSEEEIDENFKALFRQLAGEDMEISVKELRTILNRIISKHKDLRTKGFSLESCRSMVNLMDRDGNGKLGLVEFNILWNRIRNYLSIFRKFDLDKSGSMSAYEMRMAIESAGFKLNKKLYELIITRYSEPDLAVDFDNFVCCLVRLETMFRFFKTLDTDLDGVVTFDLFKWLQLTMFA
- experimentNotes: Inhibition of Cal1 (unknown origin)
pKi: −log10 of the molar value.
Listed here: items and their measured pKi.

{"columns": ["compound", "subjectOfTest", "pKi"],
 "data": [
  ["O=C(NCc1ccc(F)cc1)C(=O)C(Cc1ccccc1)NC(=O)[C@H]1CCC(=O)N1Cc1ccccc1 (some centres undefined)", "Calpain-1 catalytic subunit (Homo sapiens)", 7.32],
  ["NC(=O)C(=O)C(Cc1ccccc1)NC(=O)[C@H]1CCC(=O)N1Cc1ccncc1 (mixture of isomers)", "Calpain-1 catalytic subunit (Homo sapiens)", 6.74],
  ["O=C(NC1CC1)C(=O)C(Cc1ccccc1)NC(=O)[C@H]1CCC(=O)N1Cc1ccccc1OC(F)(F)F (some centres undefined)", "Calpain-1 catalytic subunit (Homo sapiens)", 7.30],
  ["CONC(=O)C(=O)C(Cc1ccccc1)NC(=O)[C@H]1CCC(=O)N1Cc1ccccc1 (some centres undefined)", "Calpain-1 catalytic subunit (Homo sapiens)", 5.36]
]}

---

- experimentNotes: Cmax in Beagle dog at 1 mg/kg, po
- Format: ADME, organism-based, Canis lupus familiaris
- Design: dose 1 mg/kg, route oral
- statedConditions: in vivo

{"columns": ["compound", "Cmax (ng/mL)"],
 "data": [
  ["O=C(NC1CC1)C(=O)C(Cc1ccccc1)NC(=O)[C@H]1CCC(=O)N1Cc1ccccc1 (stereo partly specified)", 980]
]}
